# assaySummary: In vivo pharmacokinetics test on rat, P.O (lavage)
# experimentalConditions: po; male SD rat, P.O, 1 mg/kg; plasma; Compound 3 itself detected
measureName: Cmax (ng/mL)

> print(dat)
                                   compound  endpointvalue
1  CC(=O)NC[C@H]1CN(c2ccc(-c3ccc(Nc4nnn(C)n4)nc3)c(F)c2)C(=O)O1 [Compound 3]            614

###

# assaySummary: In vivo pharmacokinetics test on rat, P.O (lavage)
# experimentalConditions: plasma, po; male SD rat, P.O 1 mg/kg vs I.V 0.75 mg/kg; Compound 3 itself detected; read-out: F % (absolute bioavailability)
measureName: bioavailability (%)

> print(dat)
                                   compound      measurename  endpointvalue
1  CC(=O)NC[C@H]1CN(c2ccc(-c3ccc(Nc4nnn(C)n4)nc3)c(F)c2)C(=O)O1 [Compound 3]  bioavailability           45.5

###

# Tested on: methicillin-resistant Staphylococcus epidermidis (MRSE)
# assaySummary: In vitro antibacterial activity, standard agar dilution method, MRSE
# Assay type: cell-based
# experimentalConditions: clinical strains
measureName: antibacterial activity MRSE (µg/mL)

> print(dat)
                                   molecule                  measurename  endpointvalue
1  CN(c1ccc(-c2ccc(N3C[C@H](CO)OC3=O)cc2F)cn1)c1nnnn1C  antibacterial activity MRSE            0.5
2  CN(c1ccc(-c2ccc(N3C[C@H](CO)OC3=O)cc2F)cn1)c1nnn(C)n1  antibacterial activity MRSE            0.5
3  Cn1cc(Nc2ccc(-c3ccc(N4C[C@H](CO)OC4=O)cc3F)cn2)nn1  antibacterial activity MRSE              1
4  Cn1nnc(Nc2ccc(-c3ccc(N4C[C@H](CO)OC4=O)cc3F)cn2)n1  antibacterial activity MRSE            0.5
5  CC(=O)NC[C@H]1CN(c2ccc(N3CCOCC3)c(F)c2)C(=O)O1 [linezolid, Linezolid, reference compound]  antibacterial activity MRSE              2
6  CC(=O)NC[C@H]1CN(c2ccc(-c3ccc(Nc4nnn(C)n4)nc3)c(F)c2)C(=O)O1  antibacterial activity MRSE           0.25
7  Cn1nnnc1Nc1ccc(-c2ccc(N3C[C@H](CO)OC3=O)cc2F)cn1  antibacterial activity MRSE          0.125

###

# assaySummary: In vivo pharmacokinetics test on rat, P.O (lavage)
# experimentalConditions: po; male SD rat, P.O, 1 mg/kg; plasma; Compound 3 itself detected
measureName: AUC(0-inf) (ng·h/mL)

> print(dat)
                             moleculesmiles  displayunit  endpointvalue
1  CC(=O)NC[C@H]1CN(c2ccc(-c3ccc(Nc4nnn(C)n4)nc3)c(F)c2)C(=O)O1      ng·h/mL           7030

###

# Tested on: methicillin-resistant Staphylococcus aureus (MRSA)
# assaySummary: In vitro antibacterial activity, standard agar dilution method, MRSA
# Format: cell-based
# experimentalConditions: clinical strains
# Excerpt: Strains for test: methicillin-resistant Staphylococcus aureus (MRSA), methicillin-sensitive Staphylococcus aureus (MSSA), methicillin-resistant Staphylococcus epidermidis (MRSE), methicillin-sensitive Staphylococcus […] (MSSE), Enterococcus faecium, Enterococcus faecalis, streptococcus pneumoniae. Obtained from: Qianfoshan Hospital, First People's Hospital of Yunnan Province, Renji Hospital of Shanghai, People's Hospital of Jilin Province, Southwest Hospital. […]
measureName: antibacterial activity MRSA (µg/mL)

> print(dat)
                                   compound  endpointvalue
1  CN(c1ccc(-c2ccc(N3C[C@H](CO)OC3=O)cc2F)cn1)c1nnn(C)n1              1
2  Cn1cc(Nc2ccc(-c3ccc(N4C[C@H](CO)OC4=O)cc3F)cn2)nn1              1
3  Cn1nnc(Nc2ccc(-c3ccc(N4C[C@H](CO)OC4=O)cc3F)cn2)n1              1
4  CC(=O)NC[C@H]1CN(c2ccc(-c3ccc(Nc4nnn(C)n4)nc3)c(F)c2)C(=O)O1              1
5  CC(=O)NC[C@H]1CN(c2ccc(N3CCOCC3)c(F)c2)C(=O)O1 [linezolid, Linezolid, reference compound]              4
6  Cn1nnnc1Nc1ccc(-c2ccc(N3C[C@H](CO)OC3=O)cc2F)cn1           0.25
7  CN(c1ccc(-c2ccc(N3C[C@H](CO)OC3=O)cc2F)cn1)c1nnnn1C            0.5

This collection of values is drawn from patent US9359344B2.
